Assay Overview: Solubility of the compound in pre-warmed distilled water at 500 mg measured after 30 mins by HPLC analysis
Type: physicochemical

# Smiles Data, Unit Of Measure, solubility at 0.5 h
data = [
    ("C[C@H](C(=O)O)c1ccc(C[C@H]2CCC[C@@H]2O)cc1.NC(CO)(CO)CO", "mg/mL", 176),
]

###

Assay Overview: Plasma protein binding in CD-1 mouse at 600 to 15000 ng/ml measured after 6 hrs by LC-MS/MS analysis
Type: ADME, cell-free
Experimental Conditions: dose 600-15000 ng/ml, read-out: PPB

# Smiles Data, fraction unbound at 6 h
rows = [
    ("C[C@H](C(=O)O)c1ccc(C[C@H]2CCC[C@@H]2O)cc1.NC(CO)(CO)CO", "< 0.3"),
]

###

Assay Overview: Plasma protein binding in Sprague-Dawley rat at 600 to 15000 ng/ml measured after 6 hrs by LC-MS/MS analysis
Assay type: ADME, cell-free
Experimental Conditions: dose 600-15000 ng/ml, read-out: PPB
Experimental Endpoint: fraction unbound at 6 h

# Smiles Data, Experimental Endpoint, Value Measured
measured = [
    ("C[C@H](C(=O)O)c1ccc(C[C@H]2CCC[C@@H]2O)cc1.NC(CO)(CO)CO", "fraction unbound at 6 h", "< 0.3"),
]

###

Assay Overview: Aqueous solubility of the compound
Experimental Endpoint: solubility (µg/mL)

# Molecule, Experimental Endpoint, Value Measured
rows = [
    ("CC(C)Cc1ccc(C(C)C(=O)O)cc1 (stereo unspecified)", "solubility", 21.9),
]

###

Assay Overview: Plasma protein binding in human at 600 to 15000 ng/ml measured after 1 to 8 hrs by LC-MS/MS analysis
Assay type: ADME, cell-free
Experimental Conditions: dose lower 600 ng/ml, time lower 1 hrs, dose upper 15000 ng/ml, time upper 8 hrs, read-out: PPB
Experimental Endpoint: fraction unbound

# Smiles Data, Experimental Endpoint, Value Measured
measured = [
    ("C[C@H](C(=O)O)c1ccc(C[C@H]2CCC[C@@H]2O)cc1.NC(CO)(CO)CO", "fraction unbound", "< 0.05"),
]

###

Assay Overview: Plasma protein binding in Beagle dog at 600 to 15000 ng/ml measured after 6 hrs by LC-MS/MS analysis
Format: ADME, cell-free, Canis lupus familiaris
Experimental Conditions: dose 600-15000 ng/ml, read-out: PPB

# Smiles Data, fraction unbound at 6 h
data = [
    ("C[C@H](C(=O)O)c1ccc(C[C@H]2CCC[C@@H]2O)cc1.NC(CO)(CO)CO", "< 0.3"),
]
